# METHOD DESCRIPTION: TZMbI assay for cell safety (cell viability and growth, CytoTox Glo)
# MEASUREMENT CONTEXT: human, TZMbI cells, 80 μM, Experiment 2A; read-out: % decrease in viability compared to 0.1% DMSO vehicle based on viable cell luminescence
TEST READOUT: cytotoxicity at 80 μM (%)

>>> print(df.to_string())
                                   compound           test_readout  observed_result
0        COc1ccc(Br)cc1-c1oc2ccccc2c(=O)c1O  cytotoxicity at 80 μM             13.3
1  COc1ccc(Br)cc1-c1cc(=O)c2c(OCc3ccccc3)cccc2o1 [Compound 11b]  cytotoxicity at 80 μM            -1.51
2    COc1cc(Br)cc(-c2oc3ccccc3c(=O)c2O)c1OC  cytotoxicity at 80 μM            -8.38
3            COc1ccccc1-c1oc2ccccc2c(=O)c1O  cytotoxicity at 80 μM            -7.86

Cited source: patent US9629822B2
